Target: human CYP1A2 (Homo sapiens)
Sequence (P05177 1-516): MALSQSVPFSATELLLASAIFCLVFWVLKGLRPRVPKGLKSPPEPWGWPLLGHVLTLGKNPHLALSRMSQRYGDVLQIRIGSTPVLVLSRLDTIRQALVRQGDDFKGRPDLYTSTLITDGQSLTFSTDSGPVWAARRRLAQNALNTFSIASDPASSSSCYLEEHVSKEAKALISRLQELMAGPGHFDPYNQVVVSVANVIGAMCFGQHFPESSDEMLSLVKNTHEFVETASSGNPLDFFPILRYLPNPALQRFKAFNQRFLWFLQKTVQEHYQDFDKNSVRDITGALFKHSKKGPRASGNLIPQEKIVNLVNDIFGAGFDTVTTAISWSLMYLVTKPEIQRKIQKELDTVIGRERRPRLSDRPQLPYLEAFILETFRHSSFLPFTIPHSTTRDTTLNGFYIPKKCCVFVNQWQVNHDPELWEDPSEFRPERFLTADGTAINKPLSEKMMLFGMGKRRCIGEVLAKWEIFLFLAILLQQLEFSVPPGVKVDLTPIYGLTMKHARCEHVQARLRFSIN
Test: biochemical
Conditions: CYP1A2 IC50 (half-maximal inhibitory concentration)
measurement type: IC50

Ask | IC50 lookup needed for CCn1ccnc1CC1COc2ccccc2O1 (stereo not drawn) [Imiloxan] , thanks.
Reply | 25.3 µM

Ask | IC50 lookup needed for C[C@H]1CCCC(=O)CCC/C=C/c2cc(O)cc(O)c2C(=O)O1 [Zearalenone] , thanks.
Reply | 25.3 µM

Ask | IC50 lookup needed for Clc1ccccc1-c1nc(-c2ccncc2)no1 [Pifexole] , thanks.
Reply | 0.39 µM

###

Target: human CYP2C19 (Homo sapiens)
Sequence (P33261 whole entry): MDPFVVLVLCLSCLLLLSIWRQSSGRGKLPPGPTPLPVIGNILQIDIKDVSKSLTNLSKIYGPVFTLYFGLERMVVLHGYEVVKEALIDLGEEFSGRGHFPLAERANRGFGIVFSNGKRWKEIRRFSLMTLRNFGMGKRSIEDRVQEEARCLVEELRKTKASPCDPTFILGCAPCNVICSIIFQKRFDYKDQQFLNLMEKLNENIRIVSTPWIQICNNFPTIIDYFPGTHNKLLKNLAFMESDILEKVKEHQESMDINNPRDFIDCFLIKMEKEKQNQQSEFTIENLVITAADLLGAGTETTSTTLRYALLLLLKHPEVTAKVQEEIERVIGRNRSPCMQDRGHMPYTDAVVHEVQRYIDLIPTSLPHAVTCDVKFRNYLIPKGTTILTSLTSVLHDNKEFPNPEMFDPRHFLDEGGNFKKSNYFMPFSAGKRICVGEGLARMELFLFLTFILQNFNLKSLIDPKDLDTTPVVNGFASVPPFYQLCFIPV
Experiment: biochemical
// boundary case: AC50 equal to 10 µM maps to Not satisfied; strictly smaller maps to Satisfied

Ask | Is AC50 strictly under 10 µM for the entry O=C(c1ccccc1)c1ccc(Cl)cc1 [4-Chlorobenzophenone] ?
Reply | Not satisfied

Ask | Is AC50 strictly under 10 µM for the entry COC(=O)C(C)Oc1ccc(Oc2ncc(C(F)(F)F)cc2Cl)cc1 (stereo not drawn) [Haloxyfop-methyl] ?
Reply | Not satisfied

Ask | Is AC50 strictly under 10 µM for the entry O=S(=O)(c1ccccc1)c1ccc(Cl)cc1 [4-Chlorophenyl phenyl sulfone] ?
Reply | Satisfied

Ask | Is AC50 strictly under 10 µM for the entry OC1(c2ccc(Cl)c(C(F)(F)F)c2)CCN(CCCC(c2ccc(F)cc2)c2ccc(F)cc2)CC1 [Penfluridol] ?
Reply | Not satisfied

Ask | Is AC50 strictly under 10 µM for the entry COc1ccc(COC(C)=O)cc1 [4-Methoxybenzyl acetate] ?
Reply | Not satisfied

Ask | Is AC50 strictly under 10 µM for the entry C[C@]12CCC(=O)C=C1[C@@H]1C[C@@H]1[C@H]1[C@@H]3[C@@H]4C[C@@H]4[C@@]4(CCC(=O)O4)[C@@]3(C)CC[C@@H]12 [Drospirenone] ?
Reply | Satisfied

###

Target: human CYP2D6 (Homo sapiens)
Sequence (P10635 whole entry): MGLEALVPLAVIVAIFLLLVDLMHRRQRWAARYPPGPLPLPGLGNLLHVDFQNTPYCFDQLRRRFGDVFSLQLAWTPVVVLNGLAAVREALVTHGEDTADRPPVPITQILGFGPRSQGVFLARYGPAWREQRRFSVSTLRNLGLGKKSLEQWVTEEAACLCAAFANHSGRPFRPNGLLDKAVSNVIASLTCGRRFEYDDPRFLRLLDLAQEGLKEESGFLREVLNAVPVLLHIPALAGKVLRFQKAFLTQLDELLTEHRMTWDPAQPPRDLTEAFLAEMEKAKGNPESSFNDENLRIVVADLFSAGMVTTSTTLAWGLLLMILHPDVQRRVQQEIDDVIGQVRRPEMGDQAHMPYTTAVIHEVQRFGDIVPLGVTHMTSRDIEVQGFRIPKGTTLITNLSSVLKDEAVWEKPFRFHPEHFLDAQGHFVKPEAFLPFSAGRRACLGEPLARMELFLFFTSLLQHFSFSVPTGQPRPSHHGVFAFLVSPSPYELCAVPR
measurement type: IC50 (µM)
Report the value in µM with no unit label.

Ask | Short answer please: IC50, human CYP2D6 (Homo sapiens), entry O=S(=O)(Oc1ccc(Cl)cc1)c1ccccc1 [Fenson]
Reply | 35.7

Ask | Short answer please: IC50, human CYP2D6 (Homo sapiens), entry CC(=O)[O][Sn]([c]1ccccc1)([c]1ccccc1)[c]1ccccc1 [Triphenyltin acetate]
Reply | 0.81

Ask | Short answer please: IC50, human CYP2D6 (Homo sapiens), entry CN1[C@@H]2CCC(C)(C)[C@H]1C[C@H](OC(=O)C(O)(c1cccs1)c1cccs1)C2 [Mazaticol]
Reply | 14.4

Ask | Short answer please: IC50, human CYP2D6 (Homo sapiens), entry C=CCOC(=O)c1ccc(C(=O)OCC=C)c(C(=O)OCC=C)c1 [Triallyl trimellitate]
Reply | 46.2

Ask | Short answer please: IC50, human CYP2D6 (Homo sapiens), entry C=CCc1cc(S(=O)(=O)c2ccc(O)c(CC=C)c2)ccc1O
Reply | 6.26

Ask | Short answer please: IC50, human CYP2D6 (Homo sapiens), entry Cl.Clc1ccc(Cn2c(CN3CCCC3)nc3ccccc32)cc1 [Clemizole hydrochloride]
Reply | 1.56

Ask | Short answer please: IC50, human CYP2D6 (Homo sapiens), entry O=S(=O)(O)C(F)(F)C(F)(F)C(F)(F)C(F)(F)C(F)(F)C(F)(F)C(F)(F)C(F)(F)F [PFOS]
Reply | 28.4

Ask | Short answer please: IC50, human CYP2D6 (Homo sapiens), entry CCOC(CN1CCN(CC(C)C(=O)c2ccccc2)CC1)c1ccccc1.Cl.Cl (centres unmarked) [Eprazinone dihydrochloride]
Reply | 0.2

Ask | Short answer please: IC50, human CYP2D6 (Homo sapiens), entry [Cl][Bi]([Cl])([c]1ccccc1)([c]1ccccc1)[c]1ccccc1 [Triphenylbismuthine dichloride]
Reply | 7.15

Ask | Short answer please: IC50, human CYP2D6 (Homo sapiens), entry CCCCCCCC[N+](CCCCCCCC)(CCCCCCCC)CCCCCCCC.[Br-] [Tetra-N-octylammonium bromide]
Reply | 0.4

Ask | Short answer please: IC50, human CYP2D6 (Homo sapiens), entry O=C1NCN(c2ccccc2)C12CCN(CCCOc1ccc(F)cc1)CC2 [AMI-193]
Reply | 0.6

Ask | Short answer please: IC50, human CYP2D6 (Homo sapiens), entry COc1cc2c(cc1N)oc1ccccc12 [2-Methoxy-3-aminodibenzofuran]
Reply | 7.61

Ask | Short answer please: IC50, human CYP2D6 (Homo sapiens), entry [Cl][Hg][Cl] [Mercuric chloride]
Reply | 1.61

Ask | Short answer please: IC50, human CYP2D6 (Homo sapiens), entry CCC(=O)O[C@]1(C(=O)COC)[C@@H](C)C[C@H]2[C@@H]3CCC4=CC(=O)C=C[C@]4(C)[C@@]3(F)[C@@H](O)C[C@@]21C [Amelometasone]
Reply | 19.5

Ask | Short answer please: IC50, human CYP2D6 (Homo sapiens), entry C[C@H]1CCC[C@H](O)CCCCCc2cc(O)cc(O)c2C(=O)O1 [Zearalanol]
Reply | 57

Ask | Short answer please: IC50, human CYP2D6 (Homo sapiens), entry Cc1cc(-c2cc(C)c(N)c(C)c2)cc(C)c1N [3,3',5,5'-Tetramethylbenzidine]
Reply | 16.2

Ask | Short answer please: IC50, human CYP2D6 (Homo sapiens), entry Cl.OC(CNCC(O)C1CCc2cc(F)ccc2O1)C1CCc2cc(F)ccc2O1 (racemic) [rac Nebivolol hydrochloride]
Reply | 0.25

Ask | Short answer please: IC50, human CYP2D6 (Homo sapiens), entry CCCC[P+](CC)(CCCC)CCCC.CCOP(=O)([O-])OCC
Reply | 0.06

Ask | Short answer please: IC50, human CYP2D6 (Homo sapiens), entry C[N+](C)(CCOc1ccccc1)Cc1cccs1.[I-]
Reply | 0.15

Ask | Short answer please: IC50, human CYP2D6 (Homo sapiens), entry NNc1nc(-c2ccccc2)cs1 [2-Hydrazino-4-phenylthiazole]
Reply | 53.2

Ask | Short answer please: IC50, human CYP2D6 (Homo sapiens), entry C[C@@H]1C[C@H]2[C@@H]3CCC4=CC(=O)C=C[C@]4(C)[C@@]3(F)[C@@H](O)C[C@]2(C)[C@@]1(O)C(=O)COC(=O)c1ccncc1 [Dexamethasone isonicotinate]
Reply | 9.5

Ask | Short answer please: IC50, human CYP2D6 (Homo sapiens), entry CC(=O)OC1(c2ccccc2)CCN(CCc2ccccc2)CC1
Reply | 0.57

Ask | Short answer please: IC50, human CYP2D6 (Homo sapiens), entry CO/C=C(/C(=O)OC)c1ccccc1COc1cccc(C(F)(F)F)n1 [Picoxystrobin]
Reply | 38.4

Ask | Short answer please: IC50, human CYP2D6 (Homo sapiens), entry FC(F)(F)c1ccccc1-n1ccnc1
Reply | 2.28

Ask | Short answer please: IC50, human CYP2D6 (Homo sapiens), entry CCCC[N+](C)(CCCC)CCCC.O=S(=O)([N-]S(=O)(=O)C(F)(F)F)C(F)(F)F
Reply | 0.48

Ask | Short answer please: IC50, human CYP2D6 (Homo sapiens), entry C=CCOC(Cn1ccnc1)c1ccc(Cl)cc1Cl.O=S(=O)(O)O (centres unmarked) [Imazalil sulfate]
Reply | 5.1
